# Bliss excess listing for each entry below
test system: COR-L105 (Lung Adenocarcinoma); assay: Bliss excess, mean over the matrix (fraction); higher = more synergy;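 also: after 72 h of two-drug dosing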
// no unit, no text: just the number

Example results:
compound	Bliss excess
COc1cccc2c1C(=O)c1c(O)c3c(c(O)c1C2=O)C[C@@](O)(C(=O)CO)C[C@@H]3O[C@H]1C[C@H](N)[C@H](O)[C@H](C)O1 [Doxorubicin] + Cc1cc2ncnn2cc1Nc1ncc2c(n1)n(C1CCOCC1)c(=O)n2C [AZD7648] (first compound max 1 µM, 7x7, partner max 10 µM)	0.022
COc1nnc2ccc(N3CCC(c4ccc(OCCN5CCN(C)C(=O)[C@H]5C)cc4)CC3)nn12 [AZD5153] + Cn1cnc2c(F)c(Nc3ccc(Br)cc3Cl)c(C(=O)NOCCO)cc21 [Selumetinib] (first compound max 1 µM, 7x7, partner max 10 µM)	0.0622

Here's the next entry for you.
Please give the measured Bliss excess for this compound: Cc1c2c(nn1C)CSCc1cc(n(C)n1)CSc1cc(c3ccccc3c1)OCCCc1c(C(=O)O)n(C)c3c-2c(Cl)ccc13 [AZD5991] + CC1(C)CCC(CN2CCN(c3ccc(C(=O)NS(=O)(=O)c4ccc(NCC5CCOCC5)c([N+](=O)[O-])c4)c(Oc4cnc5[nH]ccc5c4)c3)CC2)=C(c2ccc(Cl)cc2)C1 [Venetoclax] (first compound max 1 µM, 7x7, partner max 1 µM)
-0.043

----------
test system: BT-474 (Breast Carcinoma); test: Bliss excess, mean over the matrix (fraction); higher = more synergy
Label yes for high-side Bliss excess (at or above -0.03) and no for low-side Bliss excess (below it).

compound	class.name
COc1cccc(OCCCN)c1-c1cc(Nc2cnc(C#N)cn2)n[nH]1 [Prexasertib] + C[C@@H]1COCCN1C2=NC(=NC(=C2)C3(CC3)[S@](=N)(=O)C)C4=C5C=CNC5=NC=C4 [AZD6738] (first compound max 1 µM, 7x7, partner max 10 µM)	yes
Cc1cc2ncnn2cc1Nc1ncc2c(n1)n(C1CCOCC1)c(=O)n2C [AZD7648] + O=C(c1cc(Cc2n[nH]c(=O)c3ccccc23)ccc1F)N1CCN(C(=O)C2CC2)CC1 [Olaparib] (first compound max 10 µM, 7x7, partner max 10 µM)	no
COc1cc2c(cc1OCCCCCOc1cc3c(cc1OC)C(=O)N1C=C(C)C[C@H]1C=N3)N=C[C@@H]1CC(C)=CN1C2=O [SG3199] + O=C(c1cc(Cc2n[nH]c(=O)c3ccccc23)ccc1F)N1CCN(C(=O)C2CC2)CC1 [Olaparib] (first compound max 0.001 µM, 7x7, partner max 10 µM)	no
NC1(C(=O)N[C@@H](CCO)c2ccc(Cl)cc2)CCN(c2ncnc3[nH]ccc23)CC1 [Capivasertib] + C[C@@H]1COCCN1C2=NC(=NC(=C2)C3(CC3)[S@](=N)(=O)C)C4=C5C=CNC5=NC=C4 [AZD6738] (first compound max 10 µM, 7x7, partner max 10 µM)	yes

Attention now shifts to the item below.
Could you please find out whether CC1(C)CCC(CN2CCN(c3ccc(C(=O)NS(=O)(=O)c4ccc(NCC5CCOCC5)c([N+](=O)[O-])c4)c(Oc4cnc5[nH]ccc5c4)c3)CC2)=C(c2ccc(Cl)cc2)C1 [Venetoclax] + CCN(CCO)CCCOc1ccc2c(Nc3cc(CC(=O)Nc4cccc(F)c4)[nH]n3)ncnc2c1 [AZD2811] (first compound max 1 µM, 7x7, partner max 1 µM) has Bliss excess that meets -0.03 or exceeds it?
yes
